- Tested on: Trypanosoma cruzi
- procedure details: Trypanosoma cruzi phosphomannomutase and mannose-1-phosphate guanylyltransferase assay
- Format: functional
- Parameters: scale not given: direction of the effect not stated beside the values
- experimental context: 10 µM
Consider the following molecules; for each one, report its Percent Effect.
Your answer should be a plain number; it is taken to be in %.

Query: Recorded Percent Effect of COCCn1ccc2cc(NC(C)=O)ccc21 , please.
Reply: 1.46

Query: Recorded Percent Effect of CNC(=O)c1ccc(C2CN(C(=O)c3cncs3)CCO2)nc1 (configuration not stated) , please.
Reply: 1.19

Query: Recorded Percent Effect of Cc1noc(C(C)C)c1C(=O)NS(=O)(=O)c1ccc(Cl)cc1 , please.
Reply: 3.8

Query: Recorded Percent Effect of CC(C)N(C)S(=O)(=O)N(C)Cc1ccc2c(c1)OCO2 , please.
Reply: 10.5

Query: Recorded Percent Effect of CCc1nc(CN2CCCC(N(C)Cc3cnc(C)s3)C2)no1 (configuration not stated) , please.
Reply: 0.979

Query: Recorded Percent Effect of Cc1ccc(C(CNCc2ccncc2)N2CCOCC2)s1 (configuration not stated) , please.
Reply: -2.73

Query: Recorded Percent Effect of Cc1nc(CNC(=O)NCC(O)c2cccc(Cl)c2)cs1 (configuration not stated) , please.
Reply: -8.69

Query: Recorded Percent Effect of COCCN(C)CC(=O)N1C[C@H]2CC[C@@H]1CN(C(=O)c1ccncc1)C2 , please.
Reply: -5.75

Query: Recorded Percent Effect of O=C(CN1C=Nc2ccccc2S1(=O)=O)NCCc1cccs1 , please.
Reply: 3.08

Query: Recorded Percent Effect of Cc1cc(NC(=O)CN2CCn3c(nnc3C(C)C)C2)no1 , please.
Reply: 2.25

Query: Recorded Percent Effect of Cc1cc(CN(C)C(=O)c2cccc(N3CCCC3=O)c2)no1 , please.
Reply: -4.25

Query: Recorded Percent Effect of CC(C)c1nc(C2CCCN2C(=O)c2nccnc2N)no1 (configuration not stated) , please.
Reply: 4.18
